Origin of the recorded values: patent EP4588921A1

- Experiment: PK studies in animals of the free base crystal forms
- Assay type: in vivo
- Protocol conditions: Sprague-Dawley (SD), rat, plasma, po, 30 mg/kg, 30MPK, 0.5%HPMC suspension, SD rats

Compound	half-life [h]
CC(C)(O)c1nc(N2C[C@H]3CN(C(=O)c4c(F)cccc4-c4ncccn4)C[C@H]3C2)ncc1F [free base crystal form II]	2.4

---

- Experiment: PK studies in animals of the free base crystal forms
- Type: in vivo
- Protocol conditions: Sprague-Dawley (SD), rat, plasma, po, 30 mg/kg, 30MPK, 0.5%HPMC suspension, SD rats
Quantity measured: bioavailability (%)

Molecule	Quantitative result
CC(C)(O)c1nc(N2C[C@H]3CN(C(=O)c4c(F)cccc4-c4ncccn4)C[C@H]3C2)ncc1F [free base crystal form II]	39.6

---

- Experiment: PK studies in animals of the free base crystal forms
- Assay type: in vivo
- Protocol conditions: Sprague-Dawley (SD), rat, plasma, po, 30 mg/kg, 30MPK, 0.5%CMC-Na suspension, SD rats
Quantity measured: AUC(0-t) (ng·h/mL)

Compound	Quantitative result
CC(C)(O)c1nc(N2C[C@H]3CN(C(=O)c4c(F)cccc4-c4ncccn4)C[C@H]3C2)ncc1F [free base crystal form I]	28400

---

- Experiment: Solubility experiments in different media (thermodynamic solubility)
- Type: physicochemical
- Protocol conditions: USP buffer, 37 °C, pH 4, aqueous buffer, thermodynamic from solid, pH 4.0, read-out: Solubility of free base crystal form I
- From the text: The solubility of the free base crystal form I and the free base crystal form II in media such as pH 1.0-8.0 USP buffer, artificial simulated gastric fluid (FaSSGF), fasted-state artificial simulated intestinal fluid (FaSSIF), fed-state artificial simulated intestinal fluid (FeSSIF) and pure water was compared to provide a basis for the evaluation of drugability.

Molecule	solubility at 2 h (µg/mL)
CC(C)(O)c1nc(N2C[C@H]3CN(C(=O)c4c(F)cccc4-c4ncccn4)C[C@H]3C2)ncc1F [free base crystal form I]	73

---

Recorded measurements of Tmax, one per entry
- Experiment: in vivo
- Protocol conditions: male, SD, rat, po, 5 mg/kg
Quantity measured: Tmax (min)

Smiles str	Quantitative result
Cc1nc(N2C[C@H]3CN(C(=O)c4c(F)cccc4-c4ccccn4)C[C@H]3C2)nc(C(C)(C)O)c1F	30
CC(C)(O)c1nc(N2C[C@H]3CN(C(=O)c4c(F)cccc4-c4ncccn4)C[C@H]3C2)ncc1F	36
Cc1nc(N2C[C@H]3CN(C(=O)c4cccc(F)c4-n4nccn4)C[C@H]3C2)nc(C(C)(C)O)c1F	15

---

- Target entity: CYP450 2C9 (Homo sapiens, UniProt P11712)
- Construct: Human liver microsome incubation system was used; from tissue; host or cells: human liver microsomes
- Sequence (P11712 whole entry): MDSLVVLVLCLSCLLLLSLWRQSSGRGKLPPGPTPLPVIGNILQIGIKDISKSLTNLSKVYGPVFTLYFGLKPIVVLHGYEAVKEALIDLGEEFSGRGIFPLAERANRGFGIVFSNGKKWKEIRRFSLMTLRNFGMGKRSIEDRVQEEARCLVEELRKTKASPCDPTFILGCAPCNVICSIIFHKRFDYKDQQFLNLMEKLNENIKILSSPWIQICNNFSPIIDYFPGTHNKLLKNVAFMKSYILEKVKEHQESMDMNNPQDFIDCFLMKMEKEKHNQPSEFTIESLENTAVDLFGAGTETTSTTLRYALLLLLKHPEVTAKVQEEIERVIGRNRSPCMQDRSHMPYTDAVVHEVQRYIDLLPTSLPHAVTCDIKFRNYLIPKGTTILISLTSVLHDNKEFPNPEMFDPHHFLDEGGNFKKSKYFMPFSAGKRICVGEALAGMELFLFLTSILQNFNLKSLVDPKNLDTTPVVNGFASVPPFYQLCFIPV
- Experiment: CYP enzyme single point inhibition test, human liver microsomes
- Type: in vitro ADME
- Protocol conditions: 20 min incubation

Smiles str	IC50
Cc1nc(N2C[C@H]3CN(C(=O)c4cccc(F)c4-n4nccn4)C[C@H]3C2)nc(C(C)(C)O)c1F	> 100 µM
CC(C)(O)c1nc(N2C[C@H]3CN(C(=O)c4c(F)cccc4-c4ncccn4)C[C@H]3C2)ncc1F	> 100 µM

---

- Experiment: Solubility experiments in different media (thermodynamic solubility)
- Assay type: physicochemical
- Protocol conditions: USP buffer, 37 °C, pH 4, aqueous buffer, thermodynamic from solid, pH 4.0, read-out: Solubility of free base crystal form II

Compound	solubility at 2 h, µg/mL
CC(C)(O)c1nc(N2C[C@H]3CN(C(=O)c4c(F)cccc4-c4ncccn4)C[C@H]3C2)ncc1F [free base crystal form II]	51

---

Recorded measurements of IC50, one per entry
- Target entity: CYP450 2D6 (Homo sapiens, UniProt P10635)
- Construct: Human liver microsome incubation system was used; from tissue; host or cells: human liver microsomes
- Sequence (P10635 whole entry): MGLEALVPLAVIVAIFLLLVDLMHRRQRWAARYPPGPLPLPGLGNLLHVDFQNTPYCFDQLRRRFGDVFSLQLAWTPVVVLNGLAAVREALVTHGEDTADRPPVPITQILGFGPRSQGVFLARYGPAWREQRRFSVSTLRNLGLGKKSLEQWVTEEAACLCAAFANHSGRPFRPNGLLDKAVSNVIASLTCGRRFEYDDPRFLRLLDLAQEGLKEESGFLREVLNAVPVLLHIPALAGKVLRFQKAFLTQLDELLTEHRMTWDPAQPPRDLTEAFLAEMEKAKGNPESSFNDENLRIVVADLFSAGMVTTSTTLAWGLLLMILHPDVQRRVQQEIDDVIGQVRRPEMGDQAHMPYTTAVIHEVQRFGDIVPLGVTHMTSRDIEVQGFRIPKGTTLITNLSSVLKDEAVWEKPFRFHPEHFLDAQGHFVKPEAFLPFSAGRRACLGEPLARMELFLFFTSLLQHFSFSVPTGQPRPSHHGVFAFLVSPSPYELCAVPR
- Experiment: CYP enzyme single point inhibition test, human liver microsomes
- Format: in vitro ADME
- Protocol conditions: 20 min incubation
- Procedure: Human liver microsome incubation system was used, and the single point method was used to quickly predict the inhibition of compounds on CYP450 enzyme subtypes. NADPH (reduced nicotinamide adenine dinucleotide phosphate) was weighed and added to 100 mM phosphate buffer, with the final concentration being 2.5 mM. Formulation of the reaction liquid of the test compound: The test example compound was weighed, diluted to 10 mM with DMSO, and diluted to 100 µM with 100 mM phosphate buffer. • 1. […]

Smiles str	Target entity	IC50
Cc1nc(N2C[C@H]3CN(C(=O)c4cccc(F)c4-n4nccn4)C[C@H]3C2)nc(C(C)(C)O)c1F	CYP450 2D6 (Homo sapiens, UniProt P10635)	> 100 µM
CC(C)(O)c1nc(N2C[C@H]3CN(C(=O)c4c(F)cccc4-c4ncccn4)C[C@H]3C2)ncc1F	CYP450 2D6 (Homo sapiens, UniProt P10635)	> 100 µM

---

- Experiment: PK studies in animals of the free base crystal forms
- Type: in vivo
- Protocol conditions: Sprague-Dawley (SD), rat, plasma, po, 5 mg/kg, 5MPK, 0.5%CMC-Na, SD rats

Compound	Cmax
CC(C)(O)c1nc(N2C[C@H]3CN(C(=O)c4c(F)cccc4-c4ncccn4)C[C@H]3C2)ncc1F [free base crystal form I]	787 ng/mL

---

- Experiment: PK studies in animals of the free base crystal forms
- Type: in vivo
- Protocol conditions: Sprague-Dawley (SD), rat, plasma, iv, 2 mg/kg, IV, 2MPK, 20%HP-B-CD solution, SD rats, read-out: MRT 0-∞
Quantity measured: MRT inf (min)

Compound	Quantitative result
CC(C)(O)c1nc(N2C[C@H]3CN(C(=O)c4c(F)cccc4-c4ncccn4)C[C@H]3C2)ncc1F [free base crystal form I]	54

---

- Target entity: UniProt:O43613
- Sequence (O43613 1-425): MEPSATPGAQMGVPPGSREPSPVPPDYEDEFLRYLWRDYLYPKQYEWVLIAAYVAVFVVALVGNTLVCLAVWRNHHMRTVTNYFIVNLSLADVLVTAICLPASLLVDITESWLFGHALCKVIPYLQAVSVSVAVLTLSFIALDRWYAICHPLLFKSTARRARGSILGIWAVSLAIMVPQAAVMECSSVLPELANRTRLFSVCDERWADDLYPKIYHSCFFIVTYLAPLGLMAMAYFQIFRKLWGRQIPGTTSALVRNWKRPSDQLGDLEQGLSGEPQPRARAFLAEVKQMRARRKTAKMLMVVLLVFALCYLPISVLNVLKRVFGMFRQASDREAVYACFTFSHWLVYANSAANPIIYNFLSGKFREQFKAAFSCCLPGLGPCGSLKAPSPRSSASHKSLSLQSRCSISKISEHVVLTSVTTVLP
- Experiment: Calcium current (FLIPR) in cells stably expressing OX1 receptor
- Protocol conditions: CHO-K1/human OX1R cells; agonist OX-A at EC80; FLIPR Tetra
pIC50: −log10 of the molar value.

Smiles str	pIC50
Cc1nc(N2C[C@H]3CN(C(=O)c4c(F)cccc4-c4ccccn4)C[C@H]3C2)nc(C(C)(C)O)c1F	6.58
Cc1nc(N2C[C@H]3CN(C(=O)c4cccc(F)c4-n4nccn4)C[C@H]3C2)nc(C(C)(C)O)c1F	5.88
Cc1nc(N2C[C@H]3CN(C(=O)c4ccc(F)cc4-n4nccn4)C[C@H]3C2)nc(C(C)(C)O)c1F	5.92
CC(C)(O)c1nc(N2C[C@H]3CN(C(=O)c4c(F)cccc4-c4ncccn4)C[C@H]3C2)ncc1F	5.97

---

- Experiment: PK studies in animals of the free base crystal forms
- Assay type: in vivo
- Protocol conditions: Sprague-Dawley (SD), rat, plasma, po, 30 mg/kg, 30MPK, 0.5%CMC-Na suspension, SD rats
Quantity measured: bioavailability (%)

Compound	Quantitative result
CC(C)(O)c1nc(N2C[C@H]3CN(C(=O)c4c(F)cccc4-c4ncccn4)C[C@H]3C2)ncc1F [free base crystal form I]	90.4

---

- Target entity: human OX2R (Homo sapiens)
- Sequence (O43614 1-444): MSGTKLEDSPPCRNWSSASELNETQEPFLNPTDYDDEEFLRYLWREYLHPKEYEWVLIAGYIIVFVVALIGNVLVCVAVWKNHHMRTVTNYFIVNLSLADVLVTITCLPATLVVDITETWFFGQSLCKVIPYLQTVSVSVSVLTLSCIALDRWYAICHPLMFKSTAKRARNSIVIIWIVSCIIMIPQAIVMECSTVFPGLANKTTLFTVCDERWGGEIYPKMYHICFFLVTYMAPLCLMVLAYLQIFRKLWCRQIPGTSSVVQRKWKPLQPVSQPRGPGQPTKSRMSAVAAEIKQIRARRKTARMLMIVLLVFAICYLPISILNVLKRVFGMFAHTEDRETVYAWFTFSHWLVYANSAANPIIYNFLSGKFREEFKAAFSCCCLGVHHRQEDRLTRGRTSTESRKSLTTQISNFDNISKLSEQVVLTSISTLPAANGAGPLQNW
- Experiment: Calcium current (FLIPR) in cells stably expressing OX2 receptor
- Protocol conditions: CHO-K1/human OX2R cells; agonist OX-B at EC80; FLIPR Tetra
Recorded measurements of IC50, one per entry
Quantity measured: IC50 (nM)

Molecule	Quantity measured	Quantitative result
CC(C)(O)c1nc(N2C[C@H]3CN(C(=O)c4c(F)cccc4-c4ncccn4)C[C@H]3C2)ncc1F [Compound 9]	IC50	8.7
Cc1nc(N2C[C@H]3CN(C(=O)c4cccc(F)c4-n4nccn4)C[C@H]3C2)nc(C(C)(C)O)c1F [Compound 11]	IC50	27
Cc1nc(N2C[C@H]3CN(C(=O)c4c(F)cccc4-c4ccccn4)C[C@H]3C2)nc(C(C)(C)O)c1F [Compound 12]	IC50	7.26
Cc1nc(N2C[C@H]3CN(C(=O)c4ccc(F)cc4-n4nccn4)C[C@H]3C2)nc(C(C)(C)O)c1F [Compound 10]	IC50	25.2
